B1: SETD8 (parent)
chain: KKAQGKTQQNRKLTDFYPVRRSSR

- Variants of: B1
- Procedure summary: protein stability index of a GFP-peptide fusion (GPS, HEK-293T) (PSI 1-6); higher = more stable;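 also: lentivirally expressed fusions sorted by FACS into six bins by GFP to DsRed ratio, PSI derived from sequencing read proportions per bin multiplied by bin number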
- Condition summary: c terminus: a fixed tail appended
Assay endpoint: protein stability index
Returns: the value as a bare number; no unit string appended.

Look over these answered cases.
1. K6C
3.03
2. R20V
3.67
3. L13G
3.42

Request: Identify the reported protein stability index for the following entry. `D15Y`
Result: 2.77

Request: Tell me measured protein stability index for `Q8C` please.
Result: 3.34

Request: Given `K6S` , respond with its protein stability index.
Result: 1.73

Request: Let me know recorded protein stability index for `R11T` , thanks.
Result: 2.19

Request: Tell me its protein stability index given `K2T` as the entry.
Result: 3.1
